Test system: S. aureus 2012
Measurement protocol: Antibacterial activity in vitro, NCCLS dilution method (Table 10)
Type: cell-based
Test conditions: S. aureus 2012, Gram +, VISA
Result type: antibacterial activity (dilution susceptibility test)
Field format: numeric only.

CC(=O)NC[C@H]1CN(c2ccc(N3CCOCC3)c(F)c2)C(=O)O1: 1

In the following, a different molecule is considered.
Quick one: antibacterial activity (dilution susceptibility test) for `CN[C@H](CC(C)C)C(=O)N[C@H]1C(=O)N[C@@H](CC(N)=O)C(=O)N[C@H]2C(=O)N[C@H]3C(=O)N[C@H](C(=O)N[C@H](C(=O)O)c4cc(O)cc(O)c4-c4cc3ccc4O)[C@H](O)c3ccc(c(Cl)c3)Oc3cc2cc(c3O[C@@H]2O[C@H](CO)[C@@H](O)[C@H](O)[C@H]2O[C@H]2C[C@](C)(N)[C@H](O)[C@H](C)O2)Oc2ccc(cc2Cl)[C@H]1O` ? 8
